Data credit: PubChem BioAssay

Here the recorded composite z-score is given for each entry.
- Method Summary: probe aShh binding to arrayed compounds – biochemical, biotinylated probe, 635/667 nm fluorescence, primary screen (AID 1114);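 note: probe is biotin-labelled aShh protein from a stem cell growth factor screen; measures binding of labelled protein to compounds printed on the slide; score merges feature fluorescence at 667 nm with signal-to-noise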
- Assay Context: small-molecule microarray, higher = more signal
Measurement Label: composite z-score

1. C=CC[C@]1(C(=O)O)N=C(c2ccc(OCCCO)cc2)O[C@H]1c1ccccc1CN=[N+]=[N-] ... -0.0209
2. CC(C)CNC(=O)[C@@]1(C)c2ccccc2C(=O)N(C(C)C)[C@H]1c1ccc(CO)cc1 ... -0.375
3. COc1ccc([Si](C)(C)[C@@H]2[C@@H](CCO)O[C@]3(C(=O)N(Cc4cccc(N(C=O)c5ccccc5)c4)c4ccccc43)[C@H]2C)cc1 ... 0.0611
4. Cc1ccc(S[C@]2(C(=O)NCCN3CCOCC3)CC(=O)N(C3CCCCC3)[C@@H]2c2ccc(CO)cc2)cc1 ... -0.186
5. COc1ccc([Si](C)(C)[C@@H]2[C@@H](CCO)O[C@]3(C(=O)N(Cc4ccc(N5C(=O)c6cccc7cccc5c67)cc4)c4ccccc43)[C@H]2C)cc1 ... -0.16
6. O=C1C2C=CC(C(O)CCc3ccccc3)N(Nc3ccccc3)C2C(=O)N1c1ccccc1 (configuration not stated) ... 0.382
7. O=C(NCC(O)CO)[C@]1(CCS(=O)(=O)c2ccccc2)N=C(c2ccc(OCCCO)cc2)O[C@@H]1c1ccccc1 (some centres not stated) ... 0.0756

====

- Experimental System: Follistatin-related protein 3 (Homo sapiens) (UniProt O95633)
- Sequence (O95633 whole entry, looked up): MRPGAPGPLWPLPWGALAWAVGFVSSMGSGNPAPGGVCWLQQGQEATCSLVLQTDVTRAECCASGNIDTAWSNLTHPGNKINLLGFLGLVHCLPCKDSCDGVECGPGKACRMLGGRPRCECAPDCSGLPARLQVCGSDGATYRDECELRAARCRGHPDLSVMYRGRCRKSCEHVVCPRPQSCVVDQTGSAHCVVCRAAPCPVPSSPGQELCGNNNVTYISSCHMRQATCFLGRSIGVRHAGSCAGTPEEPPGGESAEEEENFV
- Method Summary: compounds binding follistatin-related protein 3 – biochemical, small-molecule microarray, 635 nm fluorescence, primary screen (AID 1105);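 note: score merges emission near 667 nm and signal to noise per printed spot across three slides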
- Assay Context: FSTL3 binding, higher = more signal
Measurement Label: composite z-score

1. CC(C)C(CO)N1C(=O)[C@@H]2[C@H]3C(=O)OCC=C[C@H]3OC23C=CCN(c2ccc4ccccc4c2)C(=O)[C@@H]13 (stereo partly specified) ... -1.3
2. CN(C)CCCN1C(=O)[C@@]2(c3ccc([N+](=O)[O-])cc3)CC(=O)N(C3CCCCC3)[C@@H]2c2ccc(CO)cc21 ... -0.0207
3. O=C1O[C@@H](c2ccccc2)[C@@H](c2ccccc2)N2[C@@H](c3ccc(O)cc3)[C@]3(C(=O)Nc4ccccc43)[C@@H](C(=O)NC[C@H](O)c3ccccc3)[C@H]12 ... 0.244
4. C=C(C)[C@@H]1CC=C(C(O)C2C=CC3C(=O)N(Cc4ccccc4)C(=O)C3N2n2cnnc2)CC1 (stereo partly specified) ... -0.739
5. CC(C)C[C@@H]1NC(=O)[C@@H]2C[C@H](C(=O)NCCCCN(C)C)[C@H](c3ccc(O)cc3)N2C1=O ... -0.401
6. NC(=O)NCC#Cc1ccc2c(c1)[C@]1(C(=O)N2)[C@H](c2ccccc2OCCO)N2[C@H](c3ccccc3)[C@H](c3ccccc3)OC(=O)[C@H]2[C@@H]1C(=O)N1CCCCCCC1 ... 1.6
7. C=C[C@H](C)[C@H](OC(=O)Nc1ccc(OC)cc1)c1ccc(O)c2ccccc12 ... 0.0608
8. C=CCOC(=O)[C@@H]1[C@H]2C(=O)O[C@H](c3ccccc3)[C@H](c3ccccc3)N2[C@H](c2ccc(OCCOC(=O)[C@H]3C[C@H]4C(=O)N[C@@H](Cc5ccccc5)C(=O)N4[C@H]3c3ccc(O)cc3)cc2)[C@@]12C(=O)Nc1ccc(I)cc12 ... 1.29
9. COCCOC(=O)N1C(=O)[C@@]2(c3cc(C#CCCO)ccc31)[C@H](c1ccc(O)cc1)N1[C@H](c3ccccc3)[C@H](c3ccccc3)OC(=O)[C@H]1[C@@H]2C(=O)N1CCCCCCC1 ... 1.39
10. COC(=O)C(CC#Cc1ccc2c(c1)[C@]1(C(=O)N2)[C@H](C(=O)N2CCCCCCC2)[C@H]2C(=O)O[C@H](c3ccccc3)[C@H](c3ccccc3)N2[C@@H]1c1ccccc1OCCO)C(=O)OC ... 1.73
11. CC[C@@H]1C=C(C(=O)O)[C@H](c2ccc(C(C)C)cc2)N1S(=O)(=O)c1ccc(C)cc1 ... 1.18
12. C=CCOC(=O)[C@@H]1[C@H]2C(=O)O[C@H](c3ccccc3)[C@H](c3ccccc3)N2[C@H](c2ccc(OCCOC(=O)[C@H]3C[C@H]4C(=O)N[C@@H](CCCC[N+](C)(C)C)C(=O)N4[C@H]3c3cccc(OCCO)c3)cc2)[C@@]12C(=O)Nc1ccc(I)cc12 ... 1.43
13. [N-]=[N+]=Nc1ccccc1C[C@]1(C(=O)N2CCCCC2)N=C(c2ccc(OCCCO)cc2)O[C@H]1c1ccccc1N=[N+]=[N-] ... 0.611
14. O=C1O[C@@H](c2ccccc2)[C@@H](c2ccccc2)N2[C@@H](c3ccc(O)cc3)[C@]3(C(=O)Nc4ccc(C#CCCO)cc43)[C@@H](C(=O)N3CCCCCCC3)[C@H]12 ... 1.43
15. CCOC(=O)C[C@H]1[C@H](OC(=O)c2cc3ccccc3oc2=O)[C@@H](NC(=O)c2ccc3ccccc3c2)c2cc(OCCCO)ccc2N1C(=O)c1ccccc1 ... 0.906
16. CS(=O)(=O)CCOC(=O)C1=CC(c2ccc(CO)cc2)=CC(c2cccs2)N(Cc2cccc(OC(F)(F)F)c2)C=C1C(=O)OCCS(C)(=O)=O (stereo unspecified) ... 0.919
17. CC(C)OC(=O)C1=CCC(c2cccc(Cl)c2)O1 (stereo unspecified) ... -0.715
18. O=C1c2ccccc2[C@@]2(Cc3ccccc3N(Cc3ccccc3)C2=O)[C@H](c2ccc(CO)cc2)N1Cc1ccccc1C(F)(F)F ... -0.71
19. CO[C@H]1O[C@H](CO)[C@@H](OC(=O)Nc2ccc3c(c2)OCO3)[C@H](OC(=O)Nc2ccc3c(c2)OCO3)[C@H]1OC(=O)Nc1ccc2c(c1)OCO2 ... 0.878
20. O=S(=O)(NCCCO)c1ccc(Br)cc1 ... 0.175
21. COC(=O)[C@@]1(Cc2ccc(F)cc2)[C@H]2c3cc(C(=O)N(C)C)n(CCc4c[nH]c5ccc(OC)cc45)c3C[C@H]2CN1C(=O)c1ccccc1 ... -0.108
22. CC(C)NC(=O)[C@@H]1c2ccccc2C(=O)N(C2CCCCC2)[C@H]1c1ccc(CO)cc1 ... 0.28
23. COC(=O)c1nc2oc1CC[C@@H](CO)NC(=O)N(C)Cc1cn(nn1)C[C@H](Cc1ccccc1)NC2=O ... -0.221
24. C[N+](C)(C)CCCCNC(=O)[C@H]1C[C@H]2C(=O)N3CCC[C@H]3C(=O)N2[C@H]1c1ccc(O)cc1 ... 1.49
25. CCOC(=O)C1=CC[C@@H](c2cccc(Cl)c2)N(S(=O)(=O)c2ccc(C)cc2)[C@H]1c1ccc(C#N)cc1 ... 1.41
26. C[C@]1(C(=O)NCC(F)(F)F)c2ccccc2C(=O)N(Cc2cc(F)cc(C(F)(F)F)c2)[C@H]1c1ccc(CO)cc1 ... -0.66
